reportedMetric: melting point

Below, 10 compounds whose answers are already recorded.
COc1cccc(-c2nc3sccn3c2-c2ccnc(N[C@@H]3CCCN(C[C@@H](O)CO)C3)n2)c1 :: 106 to 108 °C
COc1cc(OC)nc(Oc2ccccc2C(=O)OC(=O)c2ccccc2Oc2nc(OC)cc(OC)n2)n1 :: 120 to 122 °C
CCOP(=O)(CC(Nc1cccnc1)c1cc(OC)c(OC)c(OC)c1)OCC (stereo unspecified) :: 104 to 106 °C
Cc1c(OC(F)F)ccnc1CSc1nc2ccccc2[nH]1 :: 99 to 100 °C
N#Cc1ccc(CC(NC(=O)OCc2ccccc2)C(=O)NCC(=O)NCCC(=O)OCc2ccccc2)cc1 (racemic) :: 134 to 135 °C
NS(=O)(=O)c1ccccc1OC(F)(F)C(F)F :: 117 to 119 °C
CCCN=C(N)Nc1ccnc(CCCCc2ncc(CC)c(O)n2)n1 :: 140 to 142 °C
CCn1nc(-c2ccccc2)c(C(C)=O)c(Nc2cnccn2)c1=O :: 229 to 230 °C
CC(=O)NS(=O)(=O)c1ccc(C2=C(c3ccccc3)C(=O)C(C)(C)O2)cc1Cl :: 194 to 195 °C
CCCCCCCCCCCCCCCCNc1ccc(C(=O)O)cc1 :: 104 to 107 °C

Input line: Given the compound Nc1nc(O)c2c(n1)NCC(CCCCCC(=O)N[C@@H](CCC(=O)O)C(=O)O)C2 (stereo partly specified) , what is its reported melting point?
Output line: 144 °C
